These data points were gathered from ChEMBL document CHEMBL5058577.

# Tested on: U2OS
# ASSAY COMMENT: Multiplex assay against U2OS
# Assay type: toxicity, cell-based
# CONDITION: human, 24 h, 1 µM, compound concentration 1 uM, replicate 1
Overview of reported Population Mitochondria Different-Phenotype (%) across a group of molecules:
# output: bare number, implied unit %

Request: Input CCn1c(-c2nc3cc(C(=O)N4CCCC(N)C4)ccc3n2C)cc2ccccc21.Cl (stereo not drawn) , output reported Population Mitochondria Different-Phenotype (%).
Response: 3

Request: Input COCCCN1CCC(NC(=O)c2cc(Cl)c(N)c3c2OCC3)CC1 [PRUCALOPRIDE] , output reported Population Mitochondria Different-Phenotype (%).
Response: 3

Request: Input Cc1ccc(OCC(O)C(C)NC(C)C)c2c1CCC2.Cl (stereo not drawn) , output reported Population Mitochondria Different-Phenotype (%).
Response: 3
